System: Fibroblast
Protocol summary: Incucyte cell viability with human fibroblast; further: unitless GR value; below 1 slowed growth and below 0 cell loss
Type: toxicity, cell-based
Assay setup: 24 h, 10 µM, compound concentration 10 uM, replicate number 1, timepoint 24 hours
Values of Growth Rate greater than or equal to 0.4 map to YES; values below map to NO.

Consider the worked cases shown below.
Molecule: O=C(NCCO)c1cccc(-c2cc(Nc3ccc(OC(F)(F)F)cc3)ncn2)c1
Qualitative label: NO
//
Molecule: CCCN1CCO[C@H]2c3cc(O)ccc3OC[C@@H]21.Cl
Qualitative label: YES

Determine whether measured Growth Rate meets or exceeds 0.4 for NC(=O)c1cccc(-c2cc(Nc3ccc(OC(F)(F)F)cc3)ncn2)c1 NO

// repeat for CC(C)(C)c1ccc(-c2coc3ccc(-c4cn[nH]c4)nc23)cc1 and report NO

Param item: NC[C@H](O)c1ccc(O)c(O)c1.O.O=C(O)C(O)C(O)C(=O)O YES

Now this one: O=c1ccc2ccc(OCCCCN3CCN(c4cccc5sccc45)CC3)cc2[nH]1 [BREXPIPRAZOLE] NO

Same question, CCc1nn2c(C)cc(C)nc2c1Cc1ccc(-c2nnc(C3CCNCC3)o2)cc1 this time NO
